Molecular target: human mPGES-1 (Homo sapiens (Human))
Sequence (O14684 whole entry): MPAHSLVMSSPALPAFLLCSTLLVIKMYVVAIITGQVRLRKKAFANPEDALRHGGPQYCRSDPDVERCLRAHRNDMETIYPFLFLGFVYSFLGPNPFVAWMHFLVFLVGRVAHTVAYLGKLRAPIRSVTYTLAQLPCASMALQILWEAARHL
Test: mPGES-1 inhibiting activity (microsome fractions, PGE2 by HTRF)
Assay type: biochemical
Conditions: microsomes from CHO-K1 cells transfected with human mPGES-1; PGH2 1 μM, 4° C., 60 seconds; read-out: mPGES-1 Inhibition IC50
pIC50: −log10 of the molar value. Where a name gives a salt, the structure may show the parent alone.
Lab note: compare pIC50 against 8. Equal or greater, write T. Smaller, write F.

Ask: Does the reported pIC50 for Cc1c(Cl)cccc1NC(=O)c1cc(NC(=O)c2c(F)cccc2Cl)cc2[nH]c(N[C@H](CO)C(C)C)nc12 [Example 201, hydrochloride] fall at or above the 8 mark?
Result: T
